# ASSAY_COMMENT: protein stability index of a GFP-peptide fusion (GPS, HEK-293T) (PSI 1-6); higher = more stable;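 note: 24-mer peptide tiles fused after GFP, lentivirally expressed, FACS-sorted into six equal bins by GFP/DsRed ratio, decoded by Illumina sequencing, PSI is the read-weighted mean bin number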
# RUN_PARAMETERS: treatment: MLN4924 1 uM, 8 h; c terminus: a fixed tail appended
METRIC: protein stability index
Write no unit; give the number alone.

// worked examples, protein stability index included
SEQUENCE_DATA: AMVWALDLDDFAGFSCNQGRYPLI [CHIT1]
protein stability index: 2.65
--
SEQUENCE_DATA: QSLTEDLEFRKSMYEEEINETRRK [LMNB1]
protein stability index: 5.04
--
SEQUENCE_DATA: GKKQEYLENRIQREIALAKKHGTQ [CHMP4C]
protein stability index: 4.13
--
SEQUENCE_DATA: RLKLMQQNPAGELEGFQAQGHPPS [ATE1]
protein stability index: 4.31
--
SEQUENCE_DATA: PNGVQLSPAEDFVLVAETTMARIR [APMAP]
protein stability index: 3.5
--
SEQUENCE_DATA: EEFAQAESKDQGKTLALARTMDIP [ALDH8A1]
protein stability index: 5.38

Q: Please report the measured protein stability index for GNFPTMEVKPKDIIHVVKDQLIGQ [TENT5D]
Ans: 3.98

Q: Please report the measured protein stability index for FEYSTIKCRDLSALMHELSNDGAR [BTBD10]
Ans: 2.57
